measured.on: GlcNAc(a1-4)Gal(b1-4)GlcNAc(b1-3)Gal(b1-4)[Fuc(a1-3)]GlcNAc(b1-3)Gal(b1-4)[Fuc(a1-3)]GlcNAc
assay.info: glycan array binding signal (z-score within array); higher = stronger binding
reported.conditions: glycan notation: IUPAC condensed, linker removed
This is one part of a sample in which the strongest signals are shown more often than they occur.
measurement.kind: glycan array binding signal (z-score)
Form: value (number only, do not type unit).

State, in one line, measured glycan array binding signal (z-score) of MVL (Microcystis viridis), Q9RHG4 (protein) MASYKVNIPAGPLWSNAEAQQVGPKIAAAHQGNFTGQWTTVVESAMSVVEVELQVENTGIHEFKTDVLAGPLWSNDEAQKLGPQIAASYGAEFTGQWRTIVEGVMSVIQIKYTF
0.006

Answer with the recorded glycan array binding signal (z-score) of EUL D1A second (Oryza sativa) (protein) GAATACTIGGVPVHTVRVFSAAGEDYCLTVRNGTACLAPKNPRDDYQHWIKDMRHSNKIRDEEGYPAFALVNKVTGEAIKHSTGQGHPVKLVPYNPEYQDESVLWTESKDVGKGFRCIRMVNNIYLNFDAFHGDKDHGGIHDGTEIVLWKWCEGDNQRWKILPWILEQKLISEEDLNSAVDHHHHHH only.
2.44
